- measured.target: hGLP-1R (Homo sapiens, UniProt P43220)
- Sequence (P43220 24-463): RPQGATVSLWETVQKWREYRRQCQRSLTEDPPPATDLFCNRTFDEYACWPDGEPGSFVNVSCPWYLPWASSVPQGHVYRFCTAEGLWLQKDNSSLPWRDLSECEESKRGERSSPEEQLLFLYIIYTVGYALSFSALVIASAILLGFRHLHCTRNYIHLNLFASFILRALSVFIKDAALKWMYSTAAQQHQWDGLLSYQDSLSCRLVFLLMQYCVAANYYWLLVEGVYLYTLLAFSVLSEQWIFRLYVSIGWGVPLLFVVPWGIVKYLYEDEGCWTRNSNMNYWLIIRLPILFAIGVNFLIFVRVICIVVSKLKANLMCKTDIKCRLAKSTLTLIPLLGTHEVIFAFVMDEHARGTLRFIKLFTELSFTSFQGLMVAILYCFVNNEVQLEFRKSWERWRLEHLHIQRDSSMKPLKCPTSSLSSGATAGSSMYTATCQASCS
- method.summary: cell-based or functional assay
Non-standard residues stand in square brackets, D forms with d. No end group written: not given here. NMeY = CN[C@@H](Cc1ccc(O)cc1)C(=O)O; αMeF = C[C@](N)(Cc1ccccc1)C(=O)O; Aib = CC(C)(N)C(=O)O
This section presents binders with their documented cAMP Rel EC50 (1% HSA) values.
measured.parameter: cAMP Rel EC50 (1% HSA) (nM)

[[record]]
binder = "YXQGTXTSDXXIXLDXKAQXXFIEXLAEGGPSSGEPPPSGTE (synthetic construct; SITE 2: note = 2-Aminoisobutyric Acid; SITE 6: note = alpha-methyl-2-fluoro-L-phenylalanine; SITE 10: note = 3-(4-Pyridyl)-L-alanine; SITE 11: note = alpha-methyl-L-serine; SITE 13: note = alpha-methyl-leucine; SITE 16: note = L-ornithine; SITE 17: note = Lysine is chemically mo) [Example 544]"
measured_parameter = "cAMP Rel EC50 (1% HSA)"
test_result = 43

[[record]]
binder = "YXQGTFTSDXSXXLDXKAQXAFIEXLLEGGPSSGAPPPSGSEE (Aib, 4Pal, Orn, αMeL, αMeY; lysine acylated C18 diacid; amide; synthetic construct; SITE 2: note = 2-Aminoisobutyric Acid; SITE 10: note = 3-(4-Pyridyl)-L-alanine; SITE 12: note = L-ornithine; SITE 13: note = alpha-methyl-leucine; SITE 16: note = L-ornithine; SITE 17: note = Lysine is chemically modified through conjugation of the epsilon-amino group of the Lys) [Example 1064]"
measured_parameter = "cAMP Rel EC50 (1% HSA)"
test_result = 912

[[record]]
binder = "YXQGTFTSDXSQXLDXKAQXAFIQXLLEGGPSSGAPPPSGSEEE (Aib, 4Pal, Orn, Me4Pal, αMeY; acylated lysine; amide; synthetic construct; SITE 2: note = 2-Aminoisobutyric Acid; SITE 10: note = 3-(4-Pyridyl)-L-alanine; SITE 13: note = alpha-methyl-leucine; SITE 16: note = L-ornithine; SITE 17: note = Lysine is chemically modified through conjugation of the epsilon-amino group of the Lysine side chain with D-Glutami) [Example 1083]"
measured_parameter = "cAMP Rel EC50 (1% HSA)"
test_result = 547

[[record]]
binder = "YXQGTFTSDXSKXLDKKAQXAFIEYLIEXGPSSGAPPPSGS (non-natural residues, acylated Lys, C-terminal amide; synthetic construct; SITE 2: note = 2-Aminoisobutyric Acid; SITE 10: note = 3-(4-Pyridyl)-L-alanine; SITE 13: note = alpha-methyl-leucine; SITE 17: note = Lysine is chemically modified through conjugation of the epsilon-amino group of the Lysine side chain with (2-[2-(2-Amino-ethoxy)-ethoxy]-acetyl)) [Example 915]"
measured_parameter = "cAMP Rel EC50 (1% HSA)"
test_result = 226

[[record]]
binder = "YXQGTFTSDXSQXLDKKAQXAFIEYLIEXGPSSGAPPPSGSE (C-terminal amide; lysine acylated with γ-Glu-C18 diacid; synthetic construct; SITE 2: note = 2-Aminoisobutyric Acid; SITE 10: note = 3-(4-Pyridyl)-L-alanine; SITE 13: note = alpha-methyl-leucine; SITE 17: note = Lysine is chemically modified through conjugation of the epsilon-amino group of the Lysine side chain with D-Glutamic acid-(gamma-Glu)-CO-(CH2)16) [Example 924]"
measured_parameter = "cAMP Rel EC50 (1% HSA)"
test_result = 402

[[record]]
binder = "YXQGTXTSDXXIXLDXXAQXEFIEXLIEGGPSSGAPPPSGS (synthetic construct; SITE 2: note = 2-Aminoisobutyric Acid; SITE 6: note = alpha-methyl-2-fluoro-L-phenylalanine; SITE 10: note = 3-(4-Pyridyl)-L-alanine; SITE 11: note = alpha-methyl-L-serine; SITE 13: note = alpha-methyl-leucine; SITE 16: note = L-ornithine; SITE 17: note = Ornithine is chemically) [Example 1211]"
measured_parameter = "cAMP Rel EC50 (1% HSA)"
test_result = 33.2

[[record]]
binder = "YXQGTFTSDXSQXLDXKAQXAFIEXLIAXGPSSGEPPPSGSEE (Non-natural residues; K acylated AEEA-γGlu-C18 diacid; C-terminal amide; synthetic construct; SITE 2: note = 2-Aminoisobutyric Acid; SITE 10: note = 3-(4-Pyridyl)-L-alanine; SITE 13: note = alpha-methyl-leucine; SITE 16: note = L-ornithine; SITE 17: note = Lysine is chemically modified through conjugation of the epsilon-amino group of the Lysine side chain with (2-[2-(2-) [Example 1099]"
measured_parameter = "cAMP Rel EC50 (1% HSA)"
test_result = 75.8

[[record]]
binder = "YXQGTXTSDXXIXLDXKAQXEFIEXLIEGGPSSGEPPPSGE (not fully specified; non-natural residues; acylated Lys; C-terminal amide; synthetic construct; SITE 2: note = 2-Aminoisobutyric Acid; SITE 6: note = alpha-methyl-2-fluoro-L-phenylalanine; SITE 10: note = 3-(4-Pyridyl)-L-alanine; SITE 11: note = alpha-methyl-L-serine; SITE 13: note = alpha-methyl-leucine; SITE 16: note = L-ornithine; SITE 17: note = Lysine is chemically mo) [Example 1151]"
measured_parameter = "cAMP Rel EC50 (1% HSA)"
test_result = 40

[[record]]
binder = "[NMeY][Aib]QGT[αMeF]TSDYSILLDKIAAKAFVQWLIAGGPSSGEPPPSEG-NH2 (not fully specified (residue 20)) [Example 300]"
measured_parameter = "cAMP Rel EC50 (1% HSA)"
test_result = 98

[[record]]
binder = "YXQGTXTSDXXIXLDXKAAXEFIEXLVEGGPSSGEPPPSGS (synthetic construct; SITE 2: note = 2-Aminoisobutyric Acid; SITE 6: note = alpha-methyl-2-fluoro-L-phenylalanine; SITE 10: note = 3-(4-Pyridyl)-L-alanine; SITE 11: note = alpha-methyl-L-serine; SITE 13: note = alpha-methyl-leucine; SITE 16: note = L-ornithine; SITE 17: note = Lysine is chemically mo) [Example 695]"
measured_parameter = "cAMP Rel EC50 (1% HSA)"
test_result = 19.5

[[record]]
binder = "YXQGTXTSDXSILLDKKAQXAFIEXLEEGGPSSGAPPPSGGGE (synthetic construct; SITE 2: note = 2-Aminoisobutyric Acid; SITE 6: note = alpha-methyl-2-fluoro-L-phenylalanine; SITE 10: note = 3-(4-Pyridyl)-L-alanine; SITE 17: note = Lysine is chemically modified through conjugation of the epsilon-amino group of the Lysine side chain with (gamma-Glu)2-CO-(CH2)1) [Example 668]"
measured_parameter = "cAMP Rel EC50 (1% HSA)"
test_result = 27.1

[[record]]
binder = "YXQGTXTSDXXIXLDXKAQXEFIEXLIEGGPSSGEPPPESE (non-natural residues; K acylated AEEA-γGlu-C18 diacid; C-amide; synthetic construct; SITE 2: note = 2-Aminoisobutyric Acid; SITE 6: note = alpha-methyl-2-fluoro-L-phenylalanine; SITE 10: note = 3-(4-Pyridyl)-L-alanine; SITE 11: note = alpha-methyl-L-serine; SITE 13: note = alpha-methyl-leucine; SITE 16: note = L-ornithine; SITE 17: note = Lysine is chemically mo) [Example 1147]"
measured_parameter = "cAMP Rel EC50 (1% HSA)"
test_result = 45.4

